These measurements were taken from patent US20180099931A1.

Give EC50 for every item shown.
Molecular target: F508delCFTR (Homo sapiens, UniProt P13569, DEL508-508)
Construct: expressed in transfected cells; host or cells: CFBE41o- human lung-derived epithelial cells (CFBE4lo-F508delCFTR-HRP), doxycycline-inducible
Sequence (P13569 with tags, fused parts or gaps DEL508-508): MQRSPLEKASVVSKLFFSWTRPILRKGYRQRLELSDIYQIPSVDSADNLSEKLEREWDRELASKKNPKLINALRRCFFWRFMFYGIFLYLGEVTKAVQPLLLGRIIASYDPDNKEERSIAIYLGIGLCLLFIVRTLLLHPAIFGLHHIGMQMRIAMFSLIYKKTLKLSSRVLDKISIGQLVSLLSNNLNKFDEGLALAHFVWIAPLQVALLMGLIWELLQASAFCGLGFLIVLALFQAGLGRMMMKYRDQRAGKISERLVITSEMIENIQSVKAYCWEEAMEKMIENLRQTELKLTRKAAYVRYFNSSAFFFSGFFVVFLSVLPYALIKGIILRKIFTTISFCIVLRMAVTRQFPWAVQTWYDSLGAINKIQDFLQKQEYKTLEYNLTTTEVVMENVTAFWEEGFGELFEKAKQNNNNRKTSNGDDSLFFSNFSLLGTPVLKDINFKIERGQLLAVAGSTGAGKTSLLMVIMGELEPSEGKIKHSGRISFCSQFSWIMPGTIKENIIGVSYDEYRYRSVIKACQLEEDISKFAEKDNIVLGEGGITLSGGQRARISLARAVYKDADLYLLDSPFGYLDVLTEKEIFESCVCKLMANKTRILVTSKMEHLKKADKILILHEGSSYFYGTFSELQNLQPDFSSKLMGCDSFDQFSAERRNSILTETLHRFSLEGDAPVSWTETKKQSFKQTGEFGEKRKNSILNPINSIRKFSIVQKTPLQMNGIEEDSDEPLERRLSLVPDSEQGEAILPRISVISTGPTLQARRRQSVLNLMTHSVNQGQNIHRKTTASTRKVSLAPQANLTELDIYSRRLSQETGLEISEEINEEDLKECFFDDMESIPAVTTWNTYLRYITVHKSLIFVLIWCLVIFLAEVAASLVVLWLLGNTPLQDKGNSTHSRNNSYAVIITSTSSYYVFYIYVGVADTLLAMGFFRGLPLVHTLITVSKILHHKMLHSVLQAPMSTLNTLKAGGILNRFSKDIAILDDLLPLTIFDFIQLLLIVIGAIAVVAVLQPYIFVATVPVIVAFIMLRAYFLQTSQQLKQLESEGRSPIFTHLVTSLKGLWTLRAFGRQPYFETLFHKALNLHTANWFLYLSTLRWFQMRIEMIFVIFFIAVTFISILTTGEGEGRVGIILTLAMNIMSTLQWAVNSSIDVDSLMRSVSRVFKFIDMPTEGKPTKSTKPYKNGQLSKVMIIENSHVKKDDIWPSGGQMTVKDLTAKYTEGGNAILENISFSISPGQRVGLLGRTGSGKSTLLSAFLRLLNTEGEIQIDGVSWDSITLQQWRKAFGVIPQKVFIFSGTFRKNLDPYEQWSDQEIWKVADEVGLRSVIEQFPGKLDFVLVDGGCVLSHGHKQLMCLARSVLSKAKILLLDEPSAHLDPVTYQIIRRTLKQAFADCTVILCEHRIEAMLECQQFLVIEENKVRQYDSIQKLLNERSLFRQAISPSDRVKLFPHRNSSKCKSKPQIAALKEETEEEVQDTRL
Assay: Cell Surface Expression-Horse Radish Peroxidase (CSE-HRP) Assay
Assay type: cell-based
Details: CSE-HRP; test compound without co-corrector; read-out: EC50 (without co-corrector)

{"compound": "COc1ccc(C(C)(C)C)cc1CN[C@H]1[C@H](C(C)(C)C)[C@@H](C(=O)O)N(C(=O)c2cc(-c3ccccc3)n(C)n2)[C@H]1c1ccccc1 [II-227]", "target_entity": "F508delCFTR (Homo sapiens, UniProt P13569, DEL508-508)", "endpoint_value": "1 to 10 µM"}
{"compound": "COc1ccc(C(C)(C)C)cc1CN[C@H]1[C@H](C(C)(C)C)[C@@H](C(=O)O)N(C(=O)[C@@H]2OCC[C@@H]2C)[C@H]1c1ccccc1 (relative stereo) [II-268]", "target_entity": "F508delCFTR (Homo sapiens, UniProt P13569, DEL508-508)", "endpoint_value": "1 to 10 µM"}

For the compound COc1cc(C(F)(F)F)ccc1CN[C@@H]1[C@@H](C(C)(C)OC)[C@H](C(=O)O)N(C(=O)C2CCCCC2)[C@@H]1c1ccccc1 (racemic) [II-88] , what EC50 is on record?
1 to 10 µM

###

Target: F508delCFTR (Homo sapiens, UniProt P13569, DEL508-508)
Construct: expressed in transfected cells; host or cells: CFBE41o- human lung-derived epithelial cells (CFBE4lo-F508delCFTR-HRP), doxycycline-inducible
Assay: Cell Surface Expression-Horse Radish Peroxidase (CSE-HRP) Assay;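 for Maximum % activity (with co-corrector): co-corrector and positive control are both the same reference corrector at 2 µM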
Assay type: cell-based
Details: with co-corrector (2 μM); maximum at any tested concentration, normalized to on-plate positive control
measured_quantity: Maximum % activity (with co-corrector)

{"compound": "COc1cnc(N2CCCC2)cc1CN[C@H]1[C@H](C(C)(C)C)[C@@H](C(=O)O)N(C(=O)C2CCCCC2)[C@H]1c1ccccc1", "target_entity": "F508delCFTR (Homo sapiens, UniProt P13569, DEL508-508)", "measured_quantity": "Maximum % activity (with co-corrector)", "endpoint_value": "++ (≥150 and <350)"}
{"compound": "Cc1cc(C(F)(F)F)nc(N[C@@H]2[C@@H](C(C)(C)C)[C@H](C(=O)O)N(C(=O)OC(C)C)[C@@H]2c2ccccc2)n1 (racemic)", "target_entity": "F508delCFTR (Homo sapiens, UniProt P13569, DEL508-508)", "measured_quantity": "Maximum % activity (with co-corrector)", "endpoint_value": "++ (≥150 and <350)"}

###

Molecular target: F508delCFTR (Homo sapiens, UniProt P13569, DEL508-508)
Construct: expressed in transfected cells; host or cells: CFBE41o- human lung-derived epithelial cells (CFBE4lo-F508delCFTR-HRP), doxycycline-inducible
Experiment: Cell Surface Expression-Horse Radish Peroxidase (CSE-HRP) Assay
Type: cell-based
Details: with co-corrector (2 μM of 3-[(2R,4R)-4-({[1-(2,2-difluoro-1,3-benzodioxol-5-yl)cyclopropyl]carbonyl}amino)-7-methoxy-3,4-dihydro-2H-chromen-2-yl]benzoic acid); read-out: EC50 (with co-corrector)
Give EC50 for every item shown.

{"molecule": "COc1ccc(C(C)(C)C)cc1CN[C@H]1[C@H](C(C)(C)C)[C@@H](C(=O)O)N(C(=O)[C@@H]2[C@@H](C(F)(F)F)[C@@H]3CC[C@H]2O3)[C@H]1c1ccccc1OC(F)F (relative stereo)", "EC50": "< 1000 nM"}
{"molecule": "CCCOC(=O)N1[C@H](C(=O)O)[C@@H](C(C)(C)C)[C@H](NCc2cc(C(C)(C)C)ccc2OC)[C@@H]1c1ccccc1", "EC50": "1000 to 10000 nM"}

Here is another molecule to look at.
For the molecule CCN(C)S(=O)(=O)NC(=O)[C@H]1[C@H](C(C)(C)C)[C@@H](Nc2cc(C(F)(F)F)cc(C)n2)[C@@H](c2ccccc2)N1C(=O)C1CCCCC1 (racemic) , what EC50 is on record?
1000 to 10000 nM

###

Give Emax for every item shown.
Target: F508delCFTR (Homo sapiens, UniProt P13569, DEL508-508)
Construct: expressed in transfected cells; host or cells: CFBE41o- human lung-derived epithelial cells (CFBE4lo-F508delCFTR-HRP), doxycycline-inducible
Assay: Cell Surface Expression-Horse Radish Peroxidase (CSE-HRP) Assay;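 for Maximum % activity (without co-corrector): percent of the 2 µM on-plate positive control corrector response above DMSO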
Type: cell-based
Details: test compound without co-corrector; maximum at any tested concentration, normalized to on-plate positive control; read-out: Maximum % activity (without co-corrector)

Consider the worked cases shown below.
{"compound": "COc1cc(Cl)ccc1CN[C@@H]1[C@@H](C(C)(C)C)[C@H](C(=O)O)N(C(=O)C2CCCCC2)[C@@H]1c1ccccn1 (racemic)", "Emax": "< 100%"}
{"compound": "COc1ccc(C(C)(C)C)cc1CN[C@H]1[C@H](C(C)(C)C)[C@@H](C(=O)O)N(C(=O)C2CCC(C)(C)C2)[C@H]1c1ccccc1 (stereo partly drawn)", "Emax": "> 200%"}

Here is another compound to look at.
Form: Entry = COc1ccc(OC(F)(F)F)cc1CN[C@H]1[C@H](C(C)(C)C)[C@@H](C(=O)O)N(C(=O)[C@H](C)c2ccccc2)[C@H]1c1cccnc1OC | System = F508delCFTR (Homo sapiens, UniProt P13569, DEL508-508) | Emax = ____
100 to 200%

###

Target: F508delCFTR (Homo sapiens, UniProt P13569, DEL508-508)
Construct: expressed in transfected cells; host or cells: CFBE41o- human lung-derived epithelial cells (CFBE4lo-F508delCFTR-HRP), doxycycline-inducible
Experiment: Cell Surface Expression-Horse Radish Peroxidase (CSE-HRP) Assay
Assay type: cell-based
Conditions: CSE-HRP; test compound without co-corrector; read-out: EC50 (without co-corrector)
measured_quantity: EC50

{"record_smiles": "COc1ccc(Br)cc1CN[C@H]1[C@H](C(C)(C)C)[C@@H](C(=O)O)N(C(=O)C2CCCCC2)[C@H]1c1ccccc1F", "endpoint_value": "1 to 10 µM"}
{"record_smiles": "COc1ccc(Cl)cc1CN[C@H]1[C@H](C(C)(C)C)[C@@H](C(=O)O)N(C(=O)OC(C)C)[C@H]1c1ccccc1OC", "endpoint_value": "1 to 10 µM"}

Form: Entry = COc1ccc(OC(F)F)cc1CN[C@H]1[C@H](C(C)(C)C)[C@@H](C(=O)O)N(C(=O)C2CCCCC2)[C@H]1c1ccccc1 | System = F508delCFTR (Homo sapiens, UniProt P13569, DEL508-508) | EC50 = ____
1 to 10 µM

###

Molecular target: F508delCFTR (Homo sapiens, UniProt P13569, DEL508-508)
Construct: expressed in transfected cells; host or cells: CFBE41o- human lung-derived epithelial cells (CFBE4lo-F508delCFTR-HRP), doxycycline-inducible
Assay: Cell Surface Expression-Horse Radish Peroxidase (CSE-HRP) Assay;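 for Maximum % activity (without co-corrector): percent of the 2 µM on-plate positive control corrector response above DMSO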
Type: cell-based
Details: test compound without co-corrector; maximum at any tested concentration, normalized to on-plate positive control; read-out: Maximum % activity (without co-corrector)
Give Emax for every item shown.

Consider the worked cases shown below.
{"record_smiles": "COc1ccc(C23CC4CC(CC(C4)C2)C3)cc1CN[C@H]1[C@H](C(C)(C)C)[C@@H](C(=O)O)N(C(=O)C2CCCCC2)[C@H]1c1cccnc1N(C)C", "measured_quantity": "Emax", "endpoint_value": "> 200%"}
{"record_smiles": "COc1nc2ccccc2cc1CN[C@H]1[C@H](C(C)(C)C)[C@@H](C(=O)O)N(C(=O)[C@@H]2CCCO2)[C@H]1c1cccnc1N(C)C", "measured_quantity": "Emax", "endpoint_value": "< 100%"}

Form: Entry = COc1ccc(C(C)(C)C)cc1CN[C@H]1[C@H](C(C)(C)C)[C@@H](C(=O)O)N(C(=O)[C@@H]2CCC[C@@](C)(O)C2)[C@H]1c1ccccc1 | System = F508delCFTR (Homo sapiens, UniProt P13569, DEL508-508) | Emax = ____
> 200%

###

Biological target: F508delCFTR (Homo sapiens, UniProt P13569, DEL508-508)
Construct: expressed in transfected cells; host or cells: CFBE41o- human lung-derived epithelial cells (CFBE4lo-F508delCFTR-HRP), doxycycline-inducible
Test: Cell Surface Expression-Horse Radish Peroxidase (CSE-HRP) Assay;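 for Maximum % activity (with co-corrector): co-corrector and positive control are both the same reference corrector at 2 µM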
Format: cell-based
Settings: with co-corrector (2 μM of 3-[(2R,4R)-4-({[1-(2,2-difluoro-1,3-benzodioxol-5-yl)cyclopropyl]carbonyl}amino)-7-methoxy-3,4-dihydro-2H-chromen-2-yl]benzoic acid); maximum at any tested concentration, normalized to on-plate positive control
measured_quantity: Maximum % activity (with co-corrector)

{"molecule": "COc1ccc(C(C)(C)C)cc1CN[C@H]1[C@H](C(C)(C)C)[C@@H](C(=O)O)N(C(=O)[C@@H]2CCCCO2)[C@H]1c1ccccc1F", "Maximum % activity (with co-corrector)": "+++ (≥350)"}
{"molecule": "COc1ncc(C2CCC2)cc1CN[C@H]1[C@H](C(C)(C)C)[C@@H](C(=O)O)N(C(=O)C2C3CCCC32)[C@H]1c1cccnc1N(C)C (stereo partly drawn)", "Maximum % activity (with co-corrector)": "+++ (≥350)"}
{"molecule": "COc1ccc2c(c1)CCC2C(=O)N1[C@H](C(=O)O)[C@@H](C(C)(C)C)[C@H](NCc2cc(C(C)(C)C)ccc2OC)[C@@H]1c1ccccc1 (stereo partly drawn)", "Maximum % activity (with co-corrector)": "+++ (≥350)"}
{"molecule": "COc1cnc(-c2ccc(C)cc2F)cc1CN[C@H]1[C@H](C(C)(C)C)[C@@H](C(=O)O)N(C(=O)C2CCCCC2)[C@H]1c1ccccc1", "Maximum % activity (with co-corrector)": "+++ (≥350)"}
{"molecule": "CCN(C)S(=O)(=O)NC(=O)[C@H]1[C@H](C(C)(C)C)[C@@H](Nc2cc(C(F)(F)F)cc(C)n2)[C@@H](c2ccccc2)N1C(=O)C1CCCCC1 (racemic)", "Maximum % activity (with co-corrector)": "++ (≥150 and <350)"}
{"molecule": "COc1ncc(-c2cccnc2C)cc1CN[C@H]1[C@H](C(C)(C)C)[C@@H](C(=O)O)N(C(=O)C2CCCCC2)[C@H]1c1ccccc1", "Maximum % activity (with co-corrector)": "+++ (≥350)"}
{"molecule": "COc1ccc(C2(C(F)(F)F)CC2)cc1CN[C@H]1[C@H](C(C)(C)C)[C@@H](C(=O)O)N(C(=O)OC(C)C)[C@H]1c1cccnc1N(C)C", "Maximum % activity (with co-corrector)": "+++ (≥350)"}
{"molecule": "Cc1cc(C(F)(F)F)cc(N[C@@H]2[C@@H](C(C)(C)C)[C@H](C(=O)NS(C)(=O)=O)N(C(=O)C3CCCCC3)[C@@H]2c2ccccc2)n1 (racemic)", "Maximum % activity (with co-corrector)": "++ (≥150 and <350)"}
{"molecule": "CC(C)OC(=O)N1[C@H](C(=O)O)[C@@H](C(C)(C)C)[C@H](NCC2CCCC(C(F)(F)F)C2)[C@@H]1c1ccccc1 (stereo partly drawn)", "Maximum % activity (with co-corrector)": "++ (≥150 and <350)"}
{"molecule": "COc1ccc(C(C)(C)C)cc1CN[C@H]1[C@H](C(C)(C)C)[C@@H](C(=O)O)N(C(=O)C2CCCCO2)[C@H]1c1ccccc1 (stereo partly drawn)", "Maximum % activity (with co-corrector)": "+++ (≥350)"}

Give Maximum % activity (with co-corrector) for all molecules that follow.
1. COc1cc2c(cc1CN[C@H]1[C@H](C(C)(C)C)[C@@H](C(=O)O)N(C(=O)OC(C)C)[C@H]1c1cccnc1OC(C)C)CCC2
2. COc1ccc(OC)c(CN[C@@H]2[C@@H](C(C)(C)C)[C@H](C(=O)O)N(C(=O)C3CCCCC3)[C@@H]2c2ccccc2)c1 (racemic)

+++ (≥350)
++ (≥150 and <350)
